- Experimental Protocol: Test B: Cytotoxicity Assay
- Format: cell-based
- Condition Description: human, uninfected MT-4 cells, same protocol as Test A
Reported Endpoint: CC50 at 5 days (µM)
The reply should be a number in µM, with the unit left off.

Worked cases, answers included:
Compound	CC50 at 5 days [µM]
CC(C)(C)C#Cc1ccc(-c2ccc(Cl)n3c(NS(C)(=O)=O)nnc23)c([C@H](Cc2cc(F)cc(F)c2)NC(=O)Cn2nc(C(F)F)c3c2C(F)(F)[C@@H]2C[C@H]32)n1	23.9
Cn1nc(NS(C)(=O)=O)c2cccc(-c3cnc([C@H](Cc4cc(F)cc(F)c4)NC(=O)Cn4nc(C(F)F)c5c4C(F)(F)[C@@H]4C[C@H]54)c(-c4cccc5c(NS(C)(=O)=O)nn(C)c45)n3)c21 [Compound 146I]	33.5
Cn1cc(-c2ccc(-c3cccc4c(NS(C)(=O)=O)nn(C)c34)c([C@H](Cc3cc(F)cc(F)c3)NC(=O)Cn3nc(C(F)(F)F)c4c3C(F)(F)[C@@H]3C[C@H]43)n2)cn1	14.3
CN1CCN(S(=O)(=O)Nc2nn(C)c3c(-c4ccc(C#CC(C)(C)O)nc4[C@H](Cc4cc(F)cc(F)c4)NC(=O)Cn4nc(C(F)(F)F)c5c4C(F)(F)[C@@H]4C[C@H]54)cccc23)CC1 [Compound 56F]	19

Sample `Cn1nc(NC(=O)c2ccno2)c2c(Cl)ccc(-c3ccc(C#CC(C)(C)O)nc3[C@H](Cc3cc(F)cc(F)c3)NC(=O)Cn3nc(C(F)F)c4c3C(F)(F)[C@@H]3C[C@H]43)c21` — what was its CC50 at 5 days?
6.8

Values compiled from patent US20140303164A1.
